Listed here are compounds together with their documented log10 IC50.
target: Bacterial 70S ribosome; assay: Displacement of [3H]chloramphenicol from 70S ribosomal complex in Staphylococcus aureus ATCC 29213 by competitive binding assay
QUANTITY: log10 IC50 (log10 of the value in µM)

- COMPOUND STRUCTURE: "CC(=O)NC[C@H]1CN(c2ccc(N3CCOCC3)c(F)c2)C(=O)O1"
  log10 IC50: 3.14
- COMPOUND STRUCTURE: "CC(=O)NC[C@H]1CN(c2ccc(-c3ccc(CNC(=N)N)cc3)c(F)c2)C(=O)O1"
  log10 IC50: 1.70
- COMPOUND STRUCTURE: "CC(=O)NC[C@H]1CN(c2ccc(-c3ccc(CN)cc3)c(F)c2)C(=O)O1"
  log10 IC50: 1.76
- COMPOUND STRUCTURE: "CS(=O)(=O)c1ccc([C@@H](O)[C@@H](CF)NC(=O)C(Cl)Cl)cc1"
  log10 IC50: 1.30
- COMPOUND STRUCTURE: "O=C(N[C@H](CO)[C@H](O)c1ccc([N+](=O)[O-])cc1)C(Cl)Cl"
  log10 IC50: -0.37
- COMPOUND STRUCTURE: "CC(=O)NC[C@H]1CN(c2ccc(-c3ccc(CNCCCF)cc3)c(F)c2)C(=O)O1"
  log10 IC50: 1.65

###

test system: Enterococcus faecium; experiment: Antimicrobial activity against linezolid-resistant Enterococcus faecium A6349 expressing VanA gene; format: functional
Listed here are compounds together with their documented MIC.

- COMPOUND STRUCTURE: "O=C(N[C@H](CO)[C@H](O)c1ccc([N+](=O)[O-])cc1)C(Cl)Cl"
  ENDPOINT UNIT: "µg/mL"
  MIC: 24
- COMPOUND STRUCTURE: "CC(=O)NC[C@H]1CN(c2ccc(-c3ccc(Cn4ccnn4)cc3)c(F)c2)C(=O)O1"
  ENDPOINT UNIT: "µg/mL"
  MIC: 1
- COMPOUND STRUCTURE: "CC(=O)NC[C@H]1CN(c2ccc(-c3ccc(CN)cc3)c(F)c2)C(=O)O1"
  ENDPOINT UNIT: "µg/mL"
  MIC: 1
- COMPOUND STRUCTURE: "CS(=O)(=O)c1ccc([C@@H](O)[C@@H](CF)NC(=O)C(Cl)Cl)cc1"
  ENDPOINT UNIT: "µg/mL"
  MIC: 16
- COMPOUND STRUCTURE: "CC(=O)NC[C@H]1CN(c2ccc(-c3ccc(CNC(=O)/C=C/c4c(C)[nH]c(=O)[nH]c4=O)cc3)c(F)c2)C(=O)O1"
  ENDPOINT UNIT: "µg/mL"
  MIC: 1
- COMPOUND STRUCTURE: "CC(=O)NC[C@H]1CN(c2ccc(-c3ccc(CNCc4cnn[nH]4)cc3)c(F)c2)C(=O)O1"
  ENDPOINT UNIT: "µg/mL"
  MIC: 0.5
- COMPOUND STRUCTURE: "CC(=O)NC[C@H]1CN(c2ccc(-c3ccc(Cn4ncnn4)cc3)c(F)c2)C(=O)O1"
  ENDPOINT UNIT: "µg/mL"
  MIC: 0.5
- COMPOUND STRUCTURE: "CC(=O)NC[C@H]1CN(c2ccc(-c3ccc(CNC(=N)N)cc3)c(F)c2)C(=O)O1"
  ENDPOINT UNIT: "µg/mL"
  MIC: 2
- COMPOUND STRUCTURE: "CC(=O)NC[C@H]1CN(c2ccc(-c3ccc(CNCCCF)cc3)c(F)c2)C(=O)O1"
  ENDPOINT UNIT: "µg/mL"
  MIC: 1
- COMPOUND STRUCTURE: "CC(=O)NC[C@H]1CN(c2ccc(N3CCOCC3)c(F)c2)C(=O)O1"
  ENDPOINT UNIT: "µg/mL"
  MIC: 16
- COMPOUND STRUCTURE: "CC(=O)NC[C@H]1CN(c2ccc(-c3ccc(CNCC(N)=O)cc3)c(F)c2)C(=O)O1"
  ENDPOINT UNIT: "µg/mL"
  MIC: 1

Ref: ChEMBL document CHEMBL1275513
